Experimental system: P23H opsin (Bos taurus, UniProt P02699, P23H)
Construct: expressed in transfected cells
Method description: Yield of folded P23H rhodopsin purified from P23H opsin expressing HEK293 cells, by spectrophotometry
Assay type: cell-based, bovine
Study conditions: compound concentration 100 μM, compared to control
Property name: % Increase in P23H Yield (Table 1) (%)
The response must be a number in % with no trailing unit.

*Q* Recorded % Increase in P23H Yield (Table 1) for O=[PH](O)c1ccccc1 [Compound 3, phenyl-phosphinic acid] with P23H opsin (Bos taurus, UniProt P02699, P23H), please?
*A* 32

*Q* Record: O=C1NC(CCO)C(=O)NC1CCO (stereo not drawn) [Compound 5]
*A* 15

*Q* Record: N#Cc1cn(Cc2ccco2)c(=O)[nH]c1=O [Compound 2]
*A* 43

*Q* Record: CC(=O)c1c(C)n[nH]c1C [Compound 1, 1-(3,5-dimethyl-1H-pyrazol-4-yl)ethanone]
*A* 31

*Q* Record: CC(C)N(CC#N)C(C)C [Compound 6, diisopropylaminoacetonitrile]
*A* 28

*Q* Record: Cc1cc([N+](=O)[O-])ccn1 [Compound 4, 2-methyl-4-nitro-pyridine]
*A* 24
